Data origin: patent EP2540163A1

Assay: logP by HPLC on reversed-phase column (C 18), EEC Directive 79/831 Annex V.A8, Method A (0.1% aqueous phosphoric acid / acetonitrile, 43°C)
Assay type: physicochemical
Conditions: c18 reversed-phase hplc; LogP method A: HPLC reversed-phase C 18, 43°C, 0.1% aqueous phosphoric acid / acetonitrile
Description: Calibration was carried out using unbranched alkan-2-ones (having 3 to 16 carbon atoms) with known logP values (determination of the logP values by the retention times using linear interpolation between two successive alkanones).
This listing pairs compounds with measured chromatographic logP.
Write no unit; give the number alone.

Example compounds with recorded chromatographic logP:
>>> print(df.to_string())
                                   compound         assay_readout  reported_value
0  Cc1nn(C)c(F)c1C(=O)N(C1CC1)S(=O)(=O)c1cccnc1Cl [compound 446]  chromatographic logP            1.96
1  Cc1c(C(=O)N(C2CC2)S(=O)(=O)c2ccccc2Cl)cnn1-c1ccccc1 [compound 201]  chromatographic logP            2.97
2  Cc1cc(C)c(C(=O)N(C2CC2)S(=O)(=O)c2cccc(Cl)c2Cl)c(Cl)n1 [compound 650]  chromatographic logP            3.57

Here is another compound to look at.
Q: # query: chromatographic logP of entry Cc1nn(C)c(F)c1C(=O)N(C1CC1)S(=O)(=O)c1ccccc1Cl [compound 180]
A: 2.34
